Test: E. coli DRC41 culture turbidity changes, primary screen, E. coli filamentation inducer project, strain DRC41, OD650, 48 h (AID 1152);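 note: E. coli MC1000 strain DRC41 lacking acrAB efflux pump and sulA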
Settings: E. coli DRC41 (acrAB sulA), higher = more signal, called active from +8 up or from −8 down
Hi, to clarify the labels: Yes covers z-score from 0.8 upward, No covers anything below 0.8.

COc1ccc([Si](C)(C)[C@H]2[C@H](CC(=O)N(CCO)Cc3ccccc3)O[C@@]3(C(=O)N(Cc4cccc(N5CCC5=O)c4)c4ccccc43)[C@@H]2C)cc1; Yes

Hi team, for Cc1ccc([C@H]2[C@H](C(=O)O)[C@H](Sc3ccccc3)[C@@H](C(C)C)N2S(=O)(=O)c2ccc(C)cc2)cc1 , is the recorded z-score at or above 0.8?
No

Hi team, for CCCC[C@H]1OB(O)C[C@H]2C1=C(C)C[C@H]1C(=O)N(Cc3ccccc3)C(=O)[C@H]12 , is the recorded z-score at or above 0.8?
Yes

Hi team, for O=C(OCCF)C1=CCC(c2cccc(Cl)c2)O1 (configuration not stated) , is the recorded z-score at or above 0.8?
No

Hi team, for COC(=O)C[C@@H]1C[C@H](C)[C@]2(O1)C(=O)N(Cc1ccccc1)c1ccc(NC(C)=O)cc12 , is the recorded z-score at or above 0.8?
No

Hi team, for O=C1c2ccccc2[C@@]2(Cc3ccccc3N(Cc3ccccc3)C2=O)[C@H](c2ccc(CO)cc2)N1C1CCCCC1 , is the recorded z-score at or above 0.8?
No

Hi team, for COCCOC(=O)N1C(=O)[C@@]2(c3cc(C#Cc4ccc(OC)cc4)ccc31)[C@H](C(=O)N1CCN(c3ncccn3)CC1)[C@H]1C(=O)O[C@H](c3ccccc3)[C@H](c3ccccc3)N1[C@@H]2c1ccc(O)cc1 , is the recorded z-score at or above 0.8?
Yes

###

Test: E. coli acrAB mutant growth effects, primary screen, E. coli filamentation inducers, strain DRC39, OD650, 48 h (AID 1179);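 note: screen aims at cell division blockers that make cells filament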
Settings: E. coli DRC39 delta-acrAB growth, called active from +8 up or from −8 down
Activity calls are given as the source filed them.
Could you please pick one outcome from this set? true = active, false = inactive

Which outcome was assigned to COc1cc2c(cc1O)C(C)N(Cc1cccc(OC(F)(F)F)c1)CC2 (stereo not drawn) in this test?
false

Which outcome was assigned to Cc1ccc(F)cc1S(=O)(=O)N[C@@H]1CCN(Cc2ccc(-c3ccccc3)cc2)C1 in this test?
true

Which outcome was assigned to N#Cc1ccc(NN2C(C(O)c3ccc([N+](=O)[O-])cc3)C=CC3C(=O)N(c4ccccc4)C(=O)C32)cc1 (stereo not drawn) in this test?
false

Which outcome was assigned to Cc1ccccc1C(O)C1C=CC2C(=O)N(C)C(=O)C2N1N1CCCCC1 (stereo not drawn) in this test?
false

Which outcome was assigned to COC(=O)[C@@]1(Cc2ccccc2)[C@H]2c3cc(C(=O)N4CCCC4)n(Cc4ccc(C)o4)c3C[C@H]2CN1C(=O)c1ccccc1 in this test?
false

Which outcome was assigned to COc1ccc([Si](C)(C)[C@@H]2[C@@H](CC(=O)N(CCO)Cc3ccccc3)O[C@]3(C(=O)N(C)c4ccccc43)[C@H]2C)cc1 in this test?
false

Which outcome was assigned to O=C1OCCC=C[C@H]2OC34C=CCN(Cc5ccccc5)C(=O)[C@H]3N(CCCCCCO)C(=O)[C@@H]4C12 (stereo partly drawn) in this test?
false

Which outcome was assigned to CCOc1cc(C(O)C2C=CC3C(=O)N(c4ccccc4)C(=O)C3N2Nc2ccc([N+](=O)[O-])cc2)ccc1O (stereo not drawn) in this test?
false
